The measurements presented in this section are drawn from patent US20170165339A1.

Study System: HLA-A*24 (human)
Assay Protocol: UV peptide-exchange ELISA, yield grade
Attribute Measured: peptide exchange yield

Entry YFIDSTNLKTHF [… (SEQ ID NO: 269)] has what peptide exchange yield?
50 to 75%

Field request: peptide exchange yield | item: VFTSTARAF [… (SEQ ID NO: 183)]
50 to 75%

Please give the measured peptide exchange yield for this binder: RYFKGLVF [RYFKGLVF (SEQ ID NO: 188)]
50 to 75%

I have this binder here, YFDKVVTL [YFDKVVTL (SEQ ID NO: 215)] , and I need its recorded peptide exchange yield.
20 to 49%
